- Test system: Staphylococcus aureus
- Protocol description: Antibacterial activity against Staphylococcus aureus SA2552
- Assay type: functional
Below, each entry is listed alongside its reported MIC.
Assay readout: MIC (µg/mL)

Compound: Cc1c(N2CC[C@@H]([C@H](C)N)C2)c(F)cc2c(=O)c(C(=O)O)cn(C3CC3)c12
Value unit: µg/mL
Measured value: 0.03
//
Compound: CN[C@@H](CC#N)[C@@H]1CCN(c2c(F)cc3c(=O)c(C(=O)O)cn(C4CC4)c3c2OC)C1
Value unit: µg/mL
Measured value: 0.06
//
Compound: CCC1(CN)CN(c2c(F)cc3c(=O)c(C(=O)O)cn(C4CC4)c3c2C)C1
Value unit: µg/mL
Measured value: 0.03
//
Compound: COc1c(N2CC[C@@H](CNCCC#N)C2)c(F)cc2c(=O)c(C(=O)O)cn(C3CC3)c12
Value unit: µg/mL
Measured value: 0.06
//
Compound: CCC1(CNCCC#N)CN(c2c(F)cc3c(=O)c(C(=O)O)cn(C4CC4)c3c2C)C1
Value unit: µg/mL
Measured value: 0.03
//
Compound: COc1c(N2CC[C@@H](CN)C2)c(F)cc2c(=O)c(C(=O)O)cn(C3CC3)c12
Value unit: µg/mL
Measured value: 0.06
//
Compound: COc1c(N2CC[C@@H]([C@@H](N)CC#N)C2)c(F)cc2c(=O)c(C(=O)O)cn(C3CC3)c12
Value unit: µg/mL
Measured value: 0.002
//
Compound: CN[C@@H](C)[C@@H]1CCN(c2c(F)cc3c(=O)c(C(=O)O)cn(C4CC4)c3c2OC)C1 [PREMAFLOXACIN]
Value unit: µg/mL
Measured value: 0.06

----------
- Test system: Streptococcus pneumoniae
- Protocol description: Antibacterial activity against Streptococcus pneumoniae SV1
- Type: functional

Molecule: CC1COc2c(N3CC[C@@H]([C@@H](N)CC#N)C3)c(F)cc3c(=O)c(C(=O)O)cn1c23 (some centres undefined)
MIC / µg/mL: 0.015
//
Molecule: COc1c(N2CC[C@@H](CN)C2)c(F)cc2c(=O)c(C(=O)O)cn(C3CC3)c12
MIC / µg/mL: 0.06
//
Molecule: Cc1c(N2CC[C@@H]([C@H](C)N)C2)c(F)cc2c(=O)c(C(=O)O)cn(C3CC3)c12
MIC / µg/mL: 0.002
//
Molecule: COc1c(N2CC[C@@H]([C@H](C)NCCC#N)C2)ccc2c(=O)c(C(=O)O)cn(C3CC3)c12
MIC / µg/mL: 0.25

----------
- Test system: Staphylococcus aureus
- Protocol description: Antibacterial activity against Staphylococcus aureus SA2552
- Format: functional
Assay readout: MIC

Compound: Cc1c(N2CC[C@@H]([C@H](C)NCCC#N)C2)c(F)cc2c(=O)c(C(=O)O)cn(C3CC3)c12
Assay readout: MIC
Measured value: 0.008 µg/mL

Compound: CC1COc2c(N3CC[C@@H]([C@H](C)N)C3)c(F)cc3c(=O)c(C(=O)O)cn1c23 (some centres undefined)
Assay readout: MIC
Measured value: 0.125 µg/mL

Compound: COc1c(N2CC[C@@H]([C@H](C)NCCC#N)C2)c(F)cc2c(=O)c(C(=O)O)cn(C3CC3)c12
Assay readout: MIC
Measured value: 0.008 µg/mL

Compound: CN[C@@H](CC#N)[C@@H]1CCN(c2c(F)cc3c(=O)c(C(=O)O)cn4c3c2OCC4C)C1 (some centres undefined)
Assay readout: MIC
Measured value: 0.125 µg/mL

----------
- Protocol description: Volume of distribution in rat at 1 mg/kg, iv
- Type: ADME, organism-based
- Set-up: dose 1 mg/kg, route intravenous
- Measurement conditions: in vivo, read-out: Vdss
Below, each entry is listed alongside its reported Vd.

Entry smiles: CN[C@@H](CC#N)[C@@H]1CCN(c2c(F)cc3c(=O)c(C(=O)O)cn(C4CC4)c3c2OC)C1
Value unit: L/kg
Vd: 1.8

Entry smiles: COc1c(N2CC[C@@H]([C@@H](N)CC#N)C2)ccc2c(=O)c(C(=O)O)cn(C3CC3)c12
Value unit: L/kg
Vd: 0.5

Entry smiles: Cc1c(N2CC(C)(CN)C2)c(F)cc2c(=O)c(C(=O)O)cn(C3CC3)c12
Value unit: L/kg
Vd: 2.5

Entry smiles: CCC1(CNCCC#N)CN(c2c(F)cc3c(=O)c(C(=O)O)cn(C4CC4)c3c2C)C1
Value unit: L/kg
Vd: 1

Entry smiles: COc1c(N2CC[C@@H]([C@H](C)NCCC#N)C2)c(F)cc2c(=O)c(C(=O)O)cn(C3CC3)c12
Value unit: L/kg
Vd: 2.5

----------
- Protocol description: Clearance in rat at 1 mg/kg, iv
- Assay type: ADME, organism-based
- Set-up: dose 1 mg/kg, route intravenous
- Measurement conditions: in vivo
Below, each entry is listed alongside its reported clearance.
Assay readout: clearance (mL/min/kg)

Entry smiles: CN[C@@H](CC#N)[C@@H]1CCN(c2c(F)cc3c(=O)c(C(=O)O)cn(C4CC4)c3c2OC)C1
Assay readout: clearance
Measured value: 19

Entry smiles: Cc1c(N2CC(C)(CN)C2)c(F)cc2c(=O)c(C(=O)O)cn(C3CC3)c12
Assay readout: clearance
Measured value: 33

Entry smiles: CCC1(CNCCC#N)CN(c2c(F)cc3c(=O)c(C(=O)O)cn(C4CC4)c3c2C)C1
Assay readout: clearance
Measured value: 13

Entry smiles: COc1c(N2CC[C@@H]([C@@H](N)CC#N)C2)ccc2c(=O)c(C(=O)O)cn(C3CC3)c12
Assay readout: clearance
Measured value: 16

Entry smiles: COc1c(N2CC[C@@H]([C@H](C)NCCC#N)C2)c(F)cc2c(=O)c(C(=O)O)cn(C3CC3)c12
Assay readout: clearance
Measured value: 24

----------
- Tested on: Streptococcus pneumoniae
- Protocol description: Antibacterial activity against Streptococcus pneumoniae SV1
- Assay type: functional

Compound: COc1c(N2CC[C@@H](CN)C2)ccc2c(=O)c(C(=O)O)cn(C3CC3)c12
Target entity: Streptococcus pneumoniae
MIC, µg/mL: 0.125
//
Compound: CC1COc2c(N3CC[C@@H]([C@H](C)NCCC#N)C3)c(F)cc3c(=O)c(C(=O)O)cn1c23 (stereo partly drawn)
Target entity: Streptococcus pneumoniae
MIC, µg/mL: 0.06
//
Compound: CN[C@@H](CC#N)[C@@H]1CCN(c2c(F)cc3c(=O)c(C(=O)O)cn4c3c2OCC4C)C1 (stereo partly drawn)
Target entity: Streptococcus pneumoniae
MIC, µg/mL: 0.125
//
Compound: COc1c(N2CC[C@@H]([C@@H](N)CC#N)C2)c(F)cc2c(=O)c(C(=O)O)cn(C3CC3)c12
Target entity: Streptococcus pneumoniae
MIC, µg/mL: 0.008
//
Compound: CN[C@@H](CC#N)[C@@H]1CCN(c2c(F)cc3c(=O)c(C(=O)O)cn(C4CC4)c3c2OC)C1
Target entity: Streptococcus pneumoniae
MIC, µg/mL: 0.06
//
Compound: COc1c(N2CC[C@@H]([C@H](C)NCCC#N)C2)c(F)cc2c(=O)c(C(=O)O)cn(C3CC3)c12
Target entity: Streptococcus pneumoniae
MIC, µg/mL: 0.015
//
Compound: COc1c(N2CC[C@@H]([C@H](C)N)C2)c(F)cc2c(=O)c(C(=O)O)cn(C3CC3)c12
Target entity: Streptococcus pneumoniae
MIC, µg/mL: 0.004
//
Compound: CC1COc2c(N3CC[C@@H]([C@H](C)N)C3)c(F)cc3c(=O)c(C(=O)O)cn1c23 (stereo partly drawn)
Target entity: Streptococcus pneumoniae
MIC, µg/mL: 0.03

----------
- Protocol description: Bioavailability in rat at 5 mg/kg, po
- Format: ADME, organism-based
- Measurement conditions: in vivo

Entry smiles: COc1c(N2CC[C@@H]([C@H](C)NCCC#N)C2)c(F)cc2c(=O)c(C(=O)O)cn(C3CC3)c12
Value unit: %
bioavailability: 70

Entry smiles: CN[C@@H](CC#N)[C@@H]1CCN(c2c(F)cc3c(=O)c(C(=O)O)cn(C4CC4)c3c2OC)C1
Value unit: %
bioavailability: 53

Entry smiles: CCC1(CNCCC#N)CN(c2c(F)cc3c(=O)c(C(=O)O)cn(C4CC4)c3c2C)C1
Value unit: %
bioavailability: 92

Entry smiles: Cc1c(N2CC(C)(CN)C2)c(F)cc2c(=O)c(C(=O)O)cn(C3CC3)c12
Value unit: %
bioavailability: 18

Entry smiles: COc1c(N2CC[C@@H]([C@@H](N)CC#N)C2)ccc2c(=O)c(C(=O)O)cn(C3CC3)c12
Value unit: %
bioavailability: 22

----------
- Tested on: Staphylococcus aureus
- Protocol description: Antibacterial activity against Staphylococcus aureus SA2552
- Type: functional
// assign true if MIC falls strictly below 0.06 µg/mL, else false (ties count as false)

Molecule: Cc1c(N2CC(C)(CNCCC#N)C2)c(F)cc2c(=O)c(C(=O)O)cn(C3CC3)c12
Target entity: Staphylococcus aureus
Class assignment: true
//
Molecule: COc1c(N2CC[C@@H](CNCCC#N)C2)ccc2c(=O)c(C(=O)O)cn(C3CC3)c12
Target entity: Staphylococcus aureus
Class assignment: false
//
Molecule: COc1c(N2CC[C@@H](CN)C2)ccc2c(=O)c(C(=O)O)cn(C3CC3)c12
Target entity: Staphylococcus aureus
Class assignment: false
//
Molecule: C[C@H]1COc2c(N3CCN(C)CC3)c(F)cc3c(=O)c(C(=O)O)cn1c23.C[C@H]1COc2c(N3CCN(C)CC3)c(F)cc3c(=O)c(C(=O)O)cn1c23.O
Target entity: Staphylococcus aureus
Class assignment: false
//
Molecule: COc1c(N2CC[C@@H]([C@H](C)NCCC#N)C2)ccc2c(=O)c(C(=O)O)cn(C3CC3)c12
Target entity: Staphylococcus aureus
Class assignment: false
//
Molecule: CC1COc2c(N3CC[C@@H]([C@H](C)NCCC#N)C3)c(F)cc3c(=O)c(C(=O)O)cn1c23 (stereo partly drawn)
Target entity: Staphylococcus aureus
Class assignment: true
